Target Of Assay: xanthurenic acid binding site(s)
Protocol Text: Effect of ions on xanthurenic acid binding to synaptic membranes
Set-up: species or system rat
Conditions Used: read-out: EC50 of ions on xanthurenic acid binding; pH 6.5
pEC50: −log10 of the molar value.
Measured Endpoint: pEC50

[Cl-].[Cl-].[Zn+2] ... ~3.30

----------
Target Of Assay: xanthurenic acid binding site(s)
Protocol Text: [3H]-XA binding to synaptic membranes in the presence of copper ions
Parameters: species or system rat
Conditions Used: pH 6.5; read-out: Kd (saturation experiment)
Measured Endpoint: Kd (µM)

O=C(O)c1cc(O)c2cccc(O)c2n1 [XA, xanthurenic acid] ... 7.56

----------
Target Of Assay: xanthurenic acid binding site(s)
Protocol Text: [3H]-XA binding to synaptic membranes in the presence of copper ions
Set-up: species or system rat
Conditions Used: read-out: EC50 (50% effective concentration) on XA binding; Tris maleate pH 6.5, room temperature, 400 nM [^3H]-XA (+20 μM xanthurenic acid) (FIG. 17)
pEC50: −log10 of the molar value.
Measured Endpoint: pEC50

[Cl][Cu][Cl] [copper ions, CuCl2] ... 4.48

----------
Target Of Assay: xanthurenic acid binding site(s)
Protocol Text: [3H]-XA binding to synaptic membranes, without ions
Design: species or system rat
Conditions Used: read-out: IC50, two site binding model, first site
Measured Endpoint: IC50 (nM)

O=C(O)c1cc(O)c2cccc(O)c2n1 [XA, xanthurenic acid] ... 300

----------
Target Of Assay: xanthurenic acid binding site(s)
Protocol Text: [3H]-XA binding to synaptic membranes, without ions
Parameters: species or system rat
Conditions Used: read-out: Kd=koff/kon
pKd: −log10 of the molar value.
Measured Endpoint: pKd

O=C(O)c1cc(O)c2cccc(O)c2n1 ... ~6.48

----------
Target Of Assay: xanthurenic acid binding site(s)
Protocol Text: [3H]-XA binding to synaptic membranes in the presence of copper ions
Set-up: species or system rat
Conditions Used: pH 6.5; read-out: IC50, two site binding model, first site
pIC50: −log10 of the molar value.
Measured Endpoint: pIC50

O=C(O)c1cc(O)c2cccc(O)c2n1 ... 6.00

----------
Target Of Assay: xanthurenic acid binding site(s)
Protocol Text: [3H]-XA binding to synaptic membranes, without ions
Set-up: species or system rat
Conditions Used: pH 7.4; read-out: Kd (saturation experiment)
Measured Endpoint: Kd (nM)

O=C(O)c1cc(O)c2cccc(O)c2n1 ... 743

----------
Target Of Assay: xanthurenic acid binding site(s)
Protocol Text: [3H]-XA binding to synaptic membranes, without ions
Design: species or system rat
Conditions Used: read-out: IC50, two site binding model, second site
pIC50: −log10 of the molar value.
Measured Endpoint: pIC50

O=C(O)c1cc(O)c2cccc(O)c2n1 [XA, xanthurenic acid] ... 4.24

Attribution: patent US7122326B2
